# experimental_system: T1, 4H340-AA
# T1 chain: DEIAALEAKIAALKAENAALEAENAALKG
# assay_info: two-hybrid library CCmax;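 also: natural log of median RNA to DNA barcode read ratio; higher means stronger binding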
# settings: mean of both orientations
metric: interaction score
Reply with just the number.

Briefly, interaction score measured for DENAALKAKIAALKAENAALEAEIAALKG [4H1874-AA] : -1.94

Recorded interaction score (binder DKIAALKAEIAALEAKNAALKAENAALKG [4H2620-AA] ): 2.42

Lab book: interaction score of DKNAALEAEIAALKAENAALKAEIAALKG [4H3162-AA] noted as -1.4

Please fill in: interaction score reported for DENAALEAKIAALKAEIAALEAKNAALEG [4H1351-AA] = -1

Where these numbers come from: paper PMC10397247
